- experimental setup: 323.15 K; 2000 kPa; Liquid
recorded metric: mass density (kg/m3)

CCCOC(C)=O [propyl ethanoate] : 855.8
CCCCOC(C)=O [butyl ethanoate] : 852
CCOC(C)=O [ethyl acetate] : 865.1
CCCCCOC(C)=O [pentyl ethanoate] : 848.7

###

- experimental setup: 348.15 K; 10000 kPa; Liquid
recorded metric: mass density (kg/m3)

CCCCOC(C)=O [butyl ethanoate] : 836.1
CCCOC(C)=O [propyl ethanoate] : 838.3
CCCCCOC(C)=O [pentyl ethanoate] : 834
CCOC(C)=O [ethyl acetate] : 845.5

###

- experimental setup: 313.15 K; 30000 kPa; Liquid
recorded metric: mass density (kg/m3)

CCCCOC(C)=O [butyl ethanoate] : 885.6
CCCOC(C)=O [propyl ethanoate] : 892.6
CCCCCOC(C)=O [pentyl ethanoate] : 880.9
CCOC(C)=O [ethyl acetate] : 905.3

###

- experimental setup: 343.15 K; 35000 kPa; Liquid
recorded metric: mass density (kg/m3)

CCCCCOC(C)=O [pentyl ethanoate] : 862.7
CCOC(C)=O [ethyl acetate] : 881.6
CCCCOC(C)=O [butyl ethanoate] : 866.3
CCCOC(C)=O [propyl ethanoate] : 871.2

###

- experimental setup: 393.15 K; 2000 kPa; Liquid
recorded metric: mass density (kg/m3)

CCCOC(C)=O [propyl ethanoate] : 773.9
CCCCOC(C)=O [butyl ethanoate] : 778.1
CCCCCOC(C)=O [pentyl ethanoate] : 780.3
CCOC(C)=O [ethyl acetate] : 773.5

###

- experimental setup: 313.15 K; 5000 kPa; Liquid
recorded metric: mass density (kg/m3)

CCCOC(C)=O [propyl ethanoate] : 869.9
CCOC(C)=O [ethyl acetate] : 880.6
CCCCOC(C)=O [butyl ethanoate] : 864.6
CCCCCOC(C)=O [pentyl ethanoate] : 861

###

- experimental setup: 323.15 K; 35000 kPa; Liquid
recorded metric: mass density (kg/m3)

CCOC(C)=O [ethyl acetate] : 900.9
CCCOC(C)=O [propyl ethanoate] : 888.8
CCCCCOC(C)=O [pentyl ethanoate] : 877.6
CCCCOC(C)=O [butyl ethanoate] : 882.4

###

- experimental setup: 343.15 K; 1000 kPa; Liquid
recorded metric: mass density (kg/m3)

CCCCOC(C)=O [butyl ethanoate] : 830.5
CCOC(C)=O [ethyl acetate] : 839.1
CCCOC(C)=O [propyl ethanoate] : 832.3
CCCCCOC(C)=O [pentyl ethanoate] : 829.3

###

- experimental setup: 378.15 K; 1000 kPa; Liquid
recorded metric: mass density (kg/m3)

CCOC(C)=O [ethyl acetate] : 791.8
CCCCOC(C)=O [butyl ethanoate] : 791.9
CCCCCOC(C)=O [pentyl ethanoate] : 791.6
CCCOC(C)=O [propyl ethanoate] : 789.4

###

- experimental setup: 328.15 K; 100 kPa; Liquid
recorded metric: mass density (kg/m3)

CCCCCOC(C)=O [pentyl ethanoate] : 842.3
CCOC(C)=O [ethyl acetate] : 856.4
CCCCOC(C)=O [butyl ethanoate] : 844.6
CCCOC(C)=O [propyl ethanoate] : 848

###

- experimental setup: 323.15 K; 30000 kPa; Liquid
recorded metric: mass density (kg/m3)

CCCCOC(C)=O [butyl ethanoate] : 877.3
CCCCCOC(C)=O [pentyl ethanoate] : 872.8
CCCOC(C)=O [propyl ethanoate] : 883.2
CCOC(C)=O [ethyl acetate] : 895

Origin of values: the NIST ThermoML archive (doi:10.1021/je060339m)
